Tested System: HLA-B*15:01
Experiment Notes: IEDB peptide-MHC binding, purified MHC/competitive/fluorescence; bounds were set here for any values at or beyond the usual limits of such assays
Condition Set: source organism: Sudan ebolavirus
pIC50: −log10 of the molar value.
Overview of recorded pIC50 for various sequences

Macromolecule Sequence	pIC50
QLKSVGLNL	4.84
YTENTSSYY	4.64

====

Tested System: HLA-A*03:01
Experiment Notes: IEDB peptide-MHC binding, purified MHC/competitive/radioactivity; filed as Kd, often an IC50 or EC50 that approximates it; bounds were set here for any values at or beyond the usual limits of such assays
Condition Set: source organism: SARS coronavirus Tor2
The threshold is 40 nM. Values of Kd beneath it are tagged 1; values meeting or exceeding it are tagged 0.

Macromolecule Sequence	Tested System	Label Value
DLPSGFNTLK	HLA-A*03:01	0
LQFAYSNRNR	HLA-A*03:01	0
SVYAWERKK	HLA-A*03:01	0
TVWEVQGYK	HLA-A*03:01	1
VTLADAGFMK	HLA-A*03:01	1
IQVTISSYK	HLA-A*03:01	1
VSLLRSTSQK	HLA-A*03:01	1
AQCFKMFYK	HLA-A*03:01	1
ALCEKALKY	HLA-A*03:01	0
AAMQRKLEK	HLA-A*03:01	0
MVMCGGSLY	HLA-A*03:01	0

====

Examples of sequences with documented Kd follow.
Tested System: HLA-A*31:01
Experiment Notes: IEDB peptide-MHC binding, purified MHC/competitive/radioactivity; filed as Kd, often an IC50 or EC50 that approximates it; bounds were set here for any values at or beyond the usual limits of such assays
Condition Set: source organism: Mammarenavirus juninense

Macromolecule Sequence	Kd
PLLCTLNKSH	≥ 70 µM
MTSWLDFSH	0.176 µM
PAAEFRRVAH	9.34 µM

====

Tested System: HLA-A*24:02
Experiment Notes: IEDB peptide-MHC binding, cellular MHC/competitive/fluorescence; bounds were set here for any values at or beyond the usual limits of such assays
Condition Set: source organism: Human herpesvirus 5 strain AD169
Measure: IC50

Macromolecule Sequence	Result
VFPTKDVAL	≥ 333 µM

====

Tested System: HLA-A*31:01
Experiment Notes: IEDB peptide-MHC binding, purified MHC/direct/fluorescence; filed as Kd, often an IC50 or EC50 that approximates it; bounds were set here for any values at or beyond the usual limits of such assays
Condition Set: source organism: Entamoeba histolytica HM-1:IMSS
pKd: −log10 of the molar value.
Measure: pKd

Macromolecule Sequence	Measure	Readout Number
WYKVFVPRR	pKd	6.99

====

Tested System: HLA-A*31:01
Experiment Notes: IEDB peptide-MHC binding, purified MHC/competitive/radioactivity; filed as Kd, often an IC50 or EC50 that approximates it; bounds were set here for any values at or beyond the usual limits of such assays
Condition Set: source organism: Lassa virus Josiah

Macromolecule Sequence	Kd, µM
THLGPQFCK	15.9

====

Tested System: HLA-B*07:02
Experiment Notes: IEDB peptide-MHC binding, purified MHC/competitive/fluorescence; filed as Kd, often an IC50 or EC50 that approximates it; bounds were set here for any values at or beyond the usual limits of such assays
Condition Set: source organism: Rickettsia akari str. Hartford
pKd: −log10 of the molar value.
Measure: pKd

Macromolecule Sequence	Measure	Result
FTARIIIFS	pKd	≤ 5.30

Cited source for all entries: the Immune Epitope Database (IEDB)
